# System: M14 melanoma
# run description: NCI-60 one-dose screen, 48 h
# protocol conditions: 10 µM unless noted
About 83,000 compounds went through this panel and 20% of them were active in at least one assay; those are over-represented in the sample as a whole. Activity calls are given as the source filed them. The calls were made as follows: active = growth percent below 10; inactive = the rest.
Your reply should match one of these outcome classes. y (active), n (inactive)

Study these solved cases before continuing.
CC(=O)OC[C@H]1O[C@@H](n2c(=O)cc(N)[nH]c2=O)C(OC(C)=O)[C@@H]1OC(C)=O (stereo partly specified) ... n
COc1cc(NCCC2CCCCN2)c2ncccc2c1OC (stereo unspecified) ... n
CCN1C(=O)N(CC)C2C1NC(=O)N2/N=C/C=C/c1ccccc1 (stereo unspecified) ... n
CSc1ccc(/C=C2\C=C(CC(=O)NCc3ccc(C(=O)c4ccccc4)cc3)c3cc(F)ccc32)cc1 ... y
CCCCCc1c(C)[nH]c(/C=C2\N=C(c3ccc[nH]3)C=C2Oc2ccc(OC)cc2)c1C ... y
CCN(CC)c1cc(C)c(Cc2c(OC)ccc3ccccc23)cc1C ... n
CCS(=O)(=O)Nc1cccc(Nc2c3cccc(C)c3nc3c(C)cccc23)c1OC ... n
CCN1C(=O)N(CC)C2C1N=C(SC)N2/N=C/C=C/c1ccccc1OC (stereo unspecified) ... y

What did the test return for CCCCCCCCCCCC1=NC(C)(C)CN1C(C)C ?
y

What classification did CCN(CC)CCCCCCCCNc1c2ccc(Cl)cc2nc2ccc(OC)cc12 end up with in this test?
y

// outcome(item) with item = CC(=O)Oc1c(Cl)c(Cl)c(Cl)c(Cl)c1Cl
n

The values you see were collected from PubChem BioAssay (NCI).
